test: Pharmacokinetics of sirolimus in blood (LC/MS/MS, non-compartmental); assay type: in vivo, patients; settings: human, whole blood, oral, 1 mg, DL 0, sor 200 mg b.i.d., sir 1 mg q.d.; cycle 1 day 1, single-dose sir; geometric mean (95% CI), n=6
RECORDED_ENDPOINT: Cmax (ng/mL)

INSERT INTO assay_data (molecule, recorded_endpoint, unit_spec, experimental_value) VALUES
  ('CO[C@H]1C[C@@H]2CC[C@@H](C)[C@@](O)(O2)C(=O)C(=O)N2CCCC[C@H]2C(=O)O[C@H]([C@H](C)C[C@@H]2CC[C@@H](O)[C@H](OC)C2)CC(=O)[C@H](C)/C=C(\C)[C@@H](O)[C@@H](OC)C(=O)[C@H](C)C[C@H](C)/C=C/C=C/C=C/1C [sirolimus]', 'Cmax', 'ng/mL', 3.81);
